Reference source: patent US20080044360A1

target: T1, human collagen type I, acid soluble, extracted from placenta (Sigma C7774) (human, UniProt P02452 162-1218; P08123 80-1119); experiment: dried collagen assay
T1 construct: tissue extract, gelled and dried in wells; also called dried human collagen; h-Collagen
T1 sequence (P02452 162-1218 limits assumed, chain 1 of 2): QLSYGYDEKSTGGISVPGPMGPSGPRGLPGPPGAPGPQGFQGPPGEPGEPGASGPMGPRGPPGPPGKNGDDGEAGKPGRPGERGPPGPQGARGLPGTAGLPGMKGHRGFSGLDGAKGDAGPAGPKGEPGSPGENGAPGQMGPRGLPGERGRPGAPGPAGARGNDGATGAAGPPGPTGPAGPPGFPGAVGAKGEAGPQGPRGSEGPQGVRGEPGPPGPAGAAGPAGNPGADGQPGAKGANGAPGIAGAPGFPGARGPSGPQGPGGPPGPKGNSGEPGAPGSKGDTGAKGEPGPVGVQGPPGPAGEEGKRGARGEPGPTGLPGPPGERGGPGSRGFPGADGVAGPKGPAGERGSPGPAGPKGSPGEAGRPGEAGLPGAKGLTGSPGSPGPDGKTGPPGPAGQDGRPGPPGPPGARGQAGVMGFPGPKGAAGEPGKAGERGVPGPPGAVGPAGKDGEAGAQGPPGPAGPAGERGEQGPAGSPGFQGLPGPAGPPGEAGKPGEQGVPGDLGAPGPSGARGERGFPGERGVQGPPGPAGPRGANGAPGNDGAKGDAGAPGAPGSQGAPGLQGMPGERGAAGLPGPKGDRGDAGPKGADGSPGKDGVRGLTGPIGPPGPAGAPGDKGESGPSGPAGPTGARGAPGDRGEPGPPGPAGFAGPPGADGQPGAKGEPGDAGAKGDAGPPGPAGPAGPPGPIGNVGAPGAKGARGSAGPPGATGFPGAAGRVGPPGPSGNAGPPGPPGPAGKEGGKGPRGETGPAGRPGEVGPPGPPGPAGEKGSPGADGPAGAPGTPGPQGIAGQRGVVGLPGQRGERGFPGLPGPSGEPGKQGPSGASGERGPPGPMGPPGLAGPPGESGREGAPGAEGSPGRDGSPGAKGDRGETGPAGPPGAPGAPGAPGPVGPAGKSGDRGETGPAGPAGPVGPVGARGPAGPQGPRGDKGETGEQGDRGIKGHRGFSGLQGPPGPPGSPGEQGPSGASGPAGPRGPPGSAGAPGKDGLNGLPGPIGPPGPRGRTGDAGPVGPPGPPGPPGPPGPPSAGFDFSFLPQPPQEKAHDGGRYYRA
T1 sequence (P08123 80-1119 limits assumed, chain 2 of 2): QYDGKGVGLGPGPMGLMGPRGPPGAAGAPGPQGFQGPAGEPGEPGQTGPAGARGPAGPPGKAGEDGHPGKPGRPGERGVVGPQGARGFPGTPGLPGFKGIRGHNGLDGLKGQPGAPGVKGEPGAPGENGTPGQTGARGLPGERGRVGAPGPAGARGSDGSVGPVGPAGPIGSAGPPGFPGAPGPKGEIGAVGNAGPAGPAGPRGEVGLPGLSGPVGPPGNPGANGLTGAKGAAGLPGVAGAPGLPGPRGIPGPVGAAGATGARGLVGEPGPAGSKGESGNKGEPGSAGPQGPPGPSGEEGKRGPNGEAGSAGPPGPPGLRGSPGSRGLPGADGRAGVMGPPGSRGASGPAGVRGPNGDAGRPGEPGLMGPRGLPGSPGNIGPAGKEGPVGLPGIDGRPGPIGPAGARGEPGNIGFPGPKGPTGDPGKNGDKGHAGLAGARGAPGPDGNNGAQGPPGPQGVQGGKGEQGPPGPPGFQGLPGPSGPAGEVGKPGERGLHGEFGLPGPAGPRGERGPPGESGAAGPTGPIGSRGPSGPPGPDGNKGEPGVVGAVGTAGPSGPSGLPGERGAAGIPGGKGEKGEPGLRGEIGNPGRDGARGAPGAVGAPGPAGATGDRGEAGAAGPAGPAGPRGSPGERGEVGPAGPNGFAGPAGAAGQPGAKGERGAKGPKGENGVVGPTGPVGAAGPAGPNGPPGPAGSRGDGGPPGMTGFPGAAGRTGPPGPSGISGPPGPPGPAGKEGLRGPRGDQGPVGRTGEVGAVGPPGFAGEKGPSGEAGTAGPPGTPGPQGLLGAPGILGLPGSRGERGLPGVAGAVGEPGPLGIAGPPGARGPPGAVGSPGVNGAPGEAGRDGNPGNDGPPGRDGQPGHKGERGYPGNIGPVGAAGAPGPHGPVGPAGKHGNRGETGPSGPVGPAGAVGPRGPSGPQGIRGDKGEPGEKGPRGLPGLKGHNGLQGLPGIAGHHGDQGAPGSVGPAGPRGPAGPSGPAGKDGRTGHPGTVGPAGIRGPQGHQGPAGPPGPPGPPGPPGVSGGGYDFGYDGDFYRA
Bridge positions count the residues as written; N and C are the ends. Square brackets hold non-standard residues; d marks the D form. Primed or numbered codes have the meaning given here. Side chains are listed from the residue outwards. Ends that are not written are not given here. Bip = N[C@@H](Cc1ccc(-c2ccccc2)cc1)C(=O)O; Gd^G = not defined here; Gd^T = not defined here; Gd^T″ = GdDTPA-thiourea
So basically, if % bound comes in under 60% it's criterion met, and if it's 60% or more it's criterion not met.

>  <binder>
{Gd^T″}-GQWHCK(Gd^T″)TRFPHHYCLYG (disulfide 5-14 (inferred)) [Compound ID 957]

>  <classLabel>
criterion met

$$$$
>  <binder>
{Gd^T″}-GK([Gly-Gd^T″])WHCYTYFPYHYCVYG (disulfide 5-14 (inferred)) [Compound ID 963]

>  <classLabel>
criterion not met

$$$$
>  <binder>
{Gd^T″}-GK([Gly-Gd^T″])WHCYTK(Gd^T″)FPHHYCK(Gd^T″)Y[Bip] (disulfide 5-14) [Compound ID 1012]

>  <classLabel>
criterion not met

$$$$
>  <binder>
{Gd^T}-DWTCSGDEYTWYCNYE (disulfide 4-13 (inferred); not fully specified (C-terminus); reading uncertain) [Compound ID 842]

>  <classLabel>
criterion met

$$$$
>  <binder>
{Gd^T″}-GK([Gly-Gd^T″])WHCYTK(Gd^T″)FPHHYCVYG (disulfide 5-14 (inferred); not fully specified (C-terminus)) [Compound ID 978]

>  <classLabel>
criterion not met

$$$$
>  <binder>
{Gd^T″}-GK([Gly-Gd^T″])WHCYTYFPHHYCVYY (disulfide 5-14 (inferred)) [Compound ID 945]

>  <classLabel>
criterion not met

$$$$
>  <binder>
{Gd^T″}-GQWHCTTRFPHH[Bip]CLYG (disulfide 5-14) [Compound ID 873]

>  <classLabel>
criterion met

$$$$
>  <binder>
{Gd^G}-GQWTCSGDEYTWHCNY (disulfide 5-14 (inferred); not fully specified (C-terminus); reading uncertain) [Compound ID 823]

>  <classLabel>
criterion met

$$$$
>  <binder>
{Gd^G}-DWTCS[dR]DEYTWHCNYE (disulfide 4-13 (inferred); not fully specified (C-terminus); reading uncertain) [Compound ID 821]

>  <classLabel>
criterion met

$$$$
